Test system: transcriptional activity of hTERT
test.name: SEAP reporter assay of hTERT expression, PhTERT-SEAP (hTERT-BJ1)
Type: cell-based, human
test.context: Homo sapiens; 210 μM, hTERT-BJ1; read-out: Relative SEAP activity (%)
What activity at 210 µM was measured for each of the following?

{"columns": ["compound", "activity at 210 µM"],
 "data": [
  ["Cc1ccc(C(=O)Oc2cccc3c2C(=O)c2cccc(OC(=O)c4ccc(C)cc4)c2C3=O)cc1 [IIIl, 1,5-Bis(4-toluoyloxy)-anthraquinone]", "99%"],
  ["O=C(Cc1ccccc1)Oc1cccc2c1C(=O)c1cccc(OC(=O)Cc3ccccc3)c1C2=O [IIIm, 1,5-Bis(phenylacetyloxy)-anthraquinone]", "100%"],
  ["O=C1c2cccc(SCCCCCCO)c2C(=O)c2cccc(SCCCCCCO)c21 [IIe, 1,5-Bis(hydroxyhexylthio)-anthraquinone]", "75%"],
  ["Cc1cccc(C(=O)Oc2cccc3c2C(=O)c2cccc(OC(=O)c4cccc(C)c4)c2C3=O)c1 [IIIk, 1,5-Bis(3-toluoyloxy)-anthraquinone]", "86%"]
]}

// below: activity at 210 µM requested for another compound
Query block: Could you share which activity at 210 µM value was measured for Cc1ccccc1C(=O)Oc1cccc2c1C(=O)c1cccc(OC(=O)c3ccccc3C)c1C2=O [IIIj, 1,5-Bis(2-toluoyloxy)-anthraquinone] ?
Result block: 94%

---

test.name: MTT relative viability, PhTERT-SEAP (hTERT-BJ1) cells
test.context: human
value.kind: viability at 48 h, 30 µM (%)
Give bare numbers, in %.

Query block: Give the measured viability at 48 h, 30 µM of CCSc1cccc2c1C(=O)c1cccc(SCC)c1C2=O [IIa, 1,5-Bis(ethylthio)-anthraquinone] .
Result block: 98

---

test.name: MTT relative viability, PhTERT-SEAP (hTERT-BJ1) cells
test.context: human, hTERT-BJ1 cells
value.kind: viability at 48 h, 262 µM (%)
Numbers only, in %.

Query block: Could you share which viability at 48 h, 262 µM value was measured for `CN(C)CCNc1cccc2c1C(=O)c1cccc(NCCN(C)C)c1C2=O` ?
Result block: 7

---

System: hepatitis B virus transfected hepatoma cell lines, HepG 2.2.15 cells
test.name: Cytotoxicity assay, 2.2.15 cells
Format: cell-based, human
test.context: 48 h of drug exposure
value.kind: IC50

{"columns": ["molecule", "result"],
 "data": [
  ["NCCCNc1cccc2c1C(=O)c1c(NCCCN)cccc1C2=O [Vk]", "> 20 µM"]
]}

Can you give me IC50 for all of these, one by one?
1. CC(C)Nc1cccc2c1C(=O)c1c(NC(C)C)cccc1C2=O [Vf, 1,8-Bis(isopropylamine)-anthraquinone]
2. O=C(Nc1ccc(NC(=O)c2ccc(C(F)(F)F)cc2)c2c1C(=O)c1ccccc1C2=O)c1ccc(C(F)(F)F)cc1 [VI31]

Result block:
1. > 20 µM
2. > 20 µM

List the reported IC50 of each molecule below.
1. O=C(Nc1ccc(NC(=O)c2ccccc2F)c2c1C(=O)c1ccccc1C2=O)c1ccccc1F [VI10]
2. NCC1CC1CCC(=O)Nc1ccc(NC(=O)CCC2CC2CN)c2c1C(=O)c1ccccc1C2=O (centres unmarked) [VI36]
3. CCCNc1cccc2c1C(=O)c1c(NCCC)cccc1C2=O [Vb, 1,8-Bis(propylamine)-anthraquinone]
4. O=C1c2cccc(NCCO)c2C(=O)c2cccc(NCCO)c21 [IVb, 1,5-Bis(ethanolamino)anthraquinone]
5. O=C(Nc1ccc(NC(=O)c2cccc(F)c2)c2c1C(=O)c1ccccc1C2=O)c1cccc(F)c1 [VI12]

Result block:
1. > 20 µM
2. 3.46 µM
3. 1.06 µM
4. 19.3 µM
5. > 20 µM

---

test.name: MTT relative viability, PhTERT-SEAP (hTERT-BJ1) cells
test.context: human, hTERT-BJ1 cells stably transfected with PhTERT-SEAP reporter
value.kind: viability at 48 h, 205 µM (%)
Answers are plain numbers, in %.

{"columns": ["smiles.record", "viability at 48 h, 205 µM [%]"],
 "data": [
  ["O=C(Cc1cccs1)Nc1ccc(NC(=O)Cc2cccs2)c2c1C(=O)c1ccccc1C2=O", 76]
]}

Query block: Need viability at 48 h, 205 µM of `O=C(CCC1CCCC1)Nc1ccc(NC(=O)CCC2CCCC2)c2c1C(=O)c1ccccc1C2=O` , thanks.
Result block: 100

---

test.name: MTT relative viability, PhTERT-SEAP (hTERT-BJ1) cells
test.context: human, hTERT-BJ1 cells, stable PhTERT-SEAP reporter clone
value.kind: viability at 48 h, 203 µM (%)
Numbers only, in %.

For each listed entry, give its viability at 48 h, 203 µM.
1. CCN(CC)CCC(=O)Nc1ccc(NC(=O)CCN(CC)CC)c2c1C(=O)c1ccccc1C2=O
2. CCN(CC)C(C)C(=O)Nc1ccc(NC(=O)C(C)N(CC)CC)c2c1C(=O)c1ccccc1C2=O (centres unmarked)

Result block:
1. 6
2. 36

---

System: transcriptional activity of hTERT
test.name: SEAP reporter assay of hTERT expression, PhTERT-SEAP (hTERT-BJ1)
Assay type: cell-based, human
test.context: Homo sapiens; 21 μM, hTERT-BJ1; read-out: Relative SEAP activity (%)
For each entry below, report its activity at 21 µM value.
One number for each entry, in %.

Sample records with activity at 21 µM:
{"columns": ["compound", "activity at 21 µM [%]"],
 "data": [
  ["Cc1ccc(C(=O)Oc2cccc3c2C(=O)c2cccc(OC(=O)c4ccc(C)cc4)c2C3=O)cc1", 126],
  ["Cc1ccccc1C(=O)Oc1cccc2c1C(=O)c1cccc(OC(=O)c3ccccc3C)c1C2=O", 120],
  ["O=C1c2cccc(SCCCCCCO)c2C(=O)c2cccc(SCCCCCCO)c21 [IIe, 1,5-Bis(hydroxyhexylthio)-anthraquinone]", 128],
  ["O=C(Cc1ccccc1)Oc1cccc2c1C(=O)c1cccc(OC(=O)Cc3ccccc3)c1C2=O", 125]
]}

Continue with the compound presented below.
Query block: Requested read-out: activity at 21 µM. Entry: `Cc1cccc(C(=O)Oc2cccc3c2C(=O)c2cccc(OC(=O)c4cccc(C)c4)c2C3=O)c1`
Result block: 124

---

Please provide measured viability at 48 h, 2.6 µM for the entries that follow.
test.name: MTT relative viability, PhTERT-SEAP (H1299) cells
test.context: human
Numbers only, in %.

{"columns": ["compound", "unit.abbreviation", "viability at 48 h, 2.6 µM"],
 "data": [
  ["CCCC(=O)Oc1cccc2c1C(=O)c1cccc(OC(=O)CCC)c1C2=O [IIIb, 1,5-Bis(butyryloxy)-anthraquinone]", "%", 107]
]}

Query block: Item CN(C)CCNc1cccc2c1C(=O)c1cccc(NCCN(C)C)c1C2=O [IVd] has what recorded viability at 48 h, 2.6 µM?
Result block: 107

---

test.name: MTT relative viability, PhTERT-SEAP (hTERT-BJ1) cells
test.context: human, hTERT-BJ1 cells
Could you please report measured viability at 48 h, 3.1 µM for the items listed next?
Quick note: unit goes after the number.

{"columns": ["smiles.record", "viability at 48 h, 3.1 µM"],
 "data": [
  ["CCCNc1cccc2c1C(=O)c1cccc(NCCC)c1C2=O", "97%"]
]}

Query block: Please give the measured viability at 48 h, 3.1 µM for this compound: `CC(C)Nc1cccc2c1C(=O)c1cccc(NC(C)C)c1C2=O`
Result block: 101%

---

Field: IC50. Provide a value for each of the compounds that follow.
Test system: hepatitis B virus transfected hepatoma cell lines, HepG 2.2.15 cells
test.name: Cytotoxicity assay, 2.2.15 cells
Assay type: cell-based, human
test.context: Homo sapiens, HepG2.2.15; 48 h of drug exposure
Answers are plain numbers, in µM.

Take a look at these entries with their results.
{"columns": ["compound", "IC50 / µM"],
 "data": [
  ["CC(C)Nc1cccc2c1C(=O)c1cccc(NC(C)C)c1C2=O", 19],
  ["CCN(CC)CCC(=O)Nc1ccc(NC(=O)CCN(CC)CC)c2c1C(=O)c1ccccc1C2=O", 0.28],
  ["CCCNc1cccc2c1C(=O)c1cccc(NCCC)c1C2=O", 1.94],
  ["O=C(Cc1cccs1)Nc1ccc(NC(=O)Cc2cccs2)c2c1C(=O)c1ccccc1C2=O", 15.5]
]}

Turning now to a further compound:
Query block: Query (compound): COc1cccc2c1C(=O)c1c(O)c3c(c(O)c1C2=O)C[C@@](O)(C(=O)CO)C[C@@H]3O[C@H]1C[C@H](N)[C@H](O)[C@H](C)O1 [Adriamycin, reference compound] ; field requested: IC50
Result block: 1.6

---

System: rat glioma C6 cells
test.name: Cytotoxicity assay (XTT colorimetric), C6 cells
Format: cell-based
test.context: Rattus norvegicus, C6; 48 h of drug exposure
value.kind: IC50
I'd appreciate it if you wrote the number followed by its unit.

Consider the reported IC50 for these molecules:
{"columns": ["smiles.record", "IC50"],
 "data": [
  ["CC(C)CNc1cccc2c1C(=O)c1cccc(NCC(C)C)c1C2=O", "12.7 µM"],
  ["Nc1ccccc1Sc1cccc2c1C(=O)c1cccc(Sc3ccccc3N)c1C2=O", "15.1 µM"],
  ["NCCCCCNc1cccc2c1C(=O)c1cccc(NCCCCCN)c1C2=O", "8.36 µM"],
  ["O=C(CCc1ccccc1)Oc1cccc2c1C(=O)c1cccc(OC(=O)CCc3ccccc3)c1C2=O", "40.1 µM"],
  ["O=C(Oc1cccc2c1C(=O)c1cccc(OC(=O)c3ccccc3Cl)c1C2=O)c1ccccc1Cl", "40.7 µM"]
]}

Would you kindly look at the next entry?
Query block: Report IC50 for `CN(C)CCNc1cccc2c1C(=O)c1cccc(NCCN(C)C)c1C2=O` tested on rat glioma C6 cells.
Result block: 0.12 µM
